Tested on: CN0375-F725-PDC KRAS spheroid viability
Experiment: Anticancer human tumor CN0375-F725-PDC patient-derived colon carcinoma cell line growth inhibition [KRAS2]
Details: second compound 0.316 µM; first compound 0.316 µM; hits give low values; spheroids with HUVEC and MSC
# reported viability, T/C; entries follow
assay-readout: viability, T/C (%)

{"molecule": "CC(C)NCC(C(=O)N1CCN(c2ncnc3c2C(C)CC3O)CC1)c1ccc(Cl)cc1 (centres undefined) + C=CC(=O)N1CCN(c2nc(=O)n(-c3c(C)ccnc3C(C)C)c3nc(-c4c(O)cccc4F)c(F)cc23)C(C)C1", "assay-readout": "viability, T/C", "number": 92.4}
{"molecule": "Cn1nccc1Nc1nccc(-c2cc3c(s2)C(C)(C)N(CCN2CCOCC2)C3=O)n1 + COc1cc2nc(C)nc(NC(C)c3cc(N)cc(C(F)(F)F)c3)c2cc1OC1CCOC1", "assay-readout": "viability, T/C", "number": 67.2}
{"molecule": "COC(=O)c1ccc2c(C(=Nc3ccc(N(C)C(=O)CN4CCN(C)CC4)cc3)c3ccccc3)c(O)[nH]c2c1 + CC1OCC2(CCN(c3cnc(Sc4ccnc(N)c4Cl)c(N)n3)CC2)C1N", "assay-readout": "viability, T/C", "number": 84.8}
{"molecule": "CCNC(=O)CC1N=C(c2ccc(Cl)cc2)c2cc(OC)ccc2-n2c(C)nnc21 (centres undefined) + COc1cc2nc(C)nc(NC(C)c3cc(N)cc(C(F)(F)F)c3)c2cc1OC1CCOC1", "assay-readout": "viability, T/C", "number": 78.1}

---

The following molecules are listed with their measured viability, T/C values.
Test system: CN0375-F725-PDC KRAS spheroid viability
Test: Anticancer human tumor CN0375-F725-PDC cell line growth inhibition [KRAS2];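 also: spheroids exposed to agents for 7 days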
Conditions: second compound 0.316 µM; first compound 0.0316 µM; hits give low values; spheroids with HUVEC and MSC

{"molecule": "COc1cc2nccc(Oc3ccc(NC(=O)C4(C(=O)Nc5ccc(F)cc5)CC4)cc3)c2cc1OC + C=CC(=O)N1CCN(c2nc(=O)n(-c3c(C)ccnc3C(C)C)c3nc(-c4c(O)cccc4F)c(F)cc23)C(C)C1", "endpoint-unit": "%", "viability, T/C": 113}
{"molecule": "COc1cc(Nc2ncc3c(n2)-c2ccc(Cl)cc2C(c2c(F)cccc2OC)=NC3)ccc1C(=O)O + C=CC(=O)N1CCN(c2nc(=O)n(-c3c(C)ccnc3C(C)C)c3nc(-c4c(O)cccc4F)c(F)cc23)C(C)C1", "endpoint-unit": "%", "viability, T/C": 107}
{"molecule": "Cn1ncnc1[C@H]1c2n[nH]c(=O)c3cc(F)cc(c23)N[C@@H]1c1ccc(F)cc1 + C=CC(=O)N1CCN(c2nc(=O)n(-c3c(C)ccnc3C(C)C)c3nc(-c4c(O)cccc4F)c(F)cc23)C(C)C1", "endpoint-unit": "%", "viability, T/C": 99.3}
{"molecule": "CC(C)n1nc(-c2ccc3oc(N)nc3c2)c2c(N)ncnc21 + C=CC(=O)N1CCN(c2nc(OCC3CCCN3C)nc3c2CCN(c2cccc4cccc(C)c24)C3)CC1CC#N", "endpoint-unit": "%", "viability, T/C": 56.6}
{"molecule": "CC1COCCN1c1cc(-c2ccnn2C)c2ccnc(-c3ccn[nH]3)c2n1 (stereo unspecified) + CNCc1ccccc1-c1csc(C(C)Nc2nc(C)nc3cc(OC)c(OC)cc23)c1", "endpoint-unit": "%", "viability, T/C": 89.7}
{"molecule": "COc1cc2nccc(Oc3ccc(NC(=O)C4(C(=O)Nc5ccc(F)cc5)CC4)cc3)c2cc1OC + CC1OCC2(CCN(c3cnc(Sc4ccnc(N)c4Cl)c(N)n3)CC2)C1N", "endpoint-unit": "%", "viability, T/C": 99.5}
